Target: sCoV2-RBD (Fc-tagged RBD of SARS-CoV-2 S protein) (SARS-CoV-2; human, UniProt P0DTC2 319-541)
Assay: BLI (Octet) blocking of ACE2 binding to captured sCoV2-RBD
Could you please report measured IC50 for the items listed next?
One number for each entry, in µg/mL.

CoV2-11 (antibody, V domains shown) VH: QVELVESGGGLVQPGRSLRLSCEASGFSFDNYAMHWVRQTPGKGLEWVSGITGNSGTIGYADSVKGRFTISRDNAKNSLYLQMNRLRAEDTALYYCAKDTDYDSSGSYFDYWGQGTLVTVSS VL: QPVLTQPPSVAVAPGQTARITCGGKNIGRESVHWYQQKPDQAPVLVIYSDGDRPSGTSERFSGSRSGNAATLTISRVEAGDEADYFCQVWDPDTDHYVFGTGTELTVL: 2.97
CoV2-01 (antibody, V domains shown) VH: QVLLVQSGAEMKKPGASVKVSCKTSGYTFTNSYIHWVRQAPGQGLEWMGWINPISGGTNYAQKFQGRVTMTRDTSINTAYMELSRLRSDDTAVYYCARDRGDYDYGWGTSPFYFDYWGQGTLVTVSS VL: DVQMTQSPSSLSASVGDRVTITCRASQSISRYLNWYQQKPGKAPKLLIYAASSLQSGVPSRFSGSGSGADFTLTISSLQPEDFATYYCQQSFSPPITFGQGTRLEIK: 9.17
CoV2-05 (antibody, V domains shown) VH: EVQLVESGGGVARPGGSLRLSCAASGFTFDDYGMSWVRQVPGKGLEWVAGINWNGERIGYADSVKGRFTISRDNAKNSLYLQMNSLRAEDTALYYCARPSGDYVAWYFNLWGRGTLVTVSS VL: QAALTQPRSVSGSPGQSVTISCTGTGSDVGPYKYVSWYQQHPGKAPKLMIYDVNERPSGVPDRFSGSKSGNTASLTISGLQAEDEADYYCGSYAGNNKWVFGGGTKLTVL: 4.18

Provide reported IC50 for each item, in the same order as listed.
1. CoV2-02 (antibody, V domains shown) VH: QVQMVQSGAEMKKPGASVKVSCKTSGYTFTNSYIHWVRQAPGQGLEWMGWINPISGGTNYAQKFQGRVTMTRDTSINTAYMELSRLRSDDTAVYYCARDRGDYDYGWGTSPFYFDYWGQGTLVSVSS VL: AIQMTQSPSSLSASVGDRVTITCRASQPISKYLNWYQQKPGKAPKLLIYAASSLQSGVPSSFSGSGFGTDFTLTISNLQPEDFATYYCQQSNGIPLTFGGGTKVDIK
2. CoV2-20 (antibody, V domains shown) VH: QVQLVESGGDLVQPGRSLRLSCAASGFIFDDYAMHWVRQVPGKGPEWVSGVNRDSTYVGQADSVKGRFTISRDNAKKALFLQMDSLRVEDTALYYCVRGMTRVATDAFDFWGQGTMVTVSS VL: AIQMTQSPSSLSASVGDRVTITCRASQSINGYLNWYQQKPGKAPKLLIYSASRLQSGVPSRFSGSGSGADYTLTISNLQVEDFATYYCQQSYSTPPVTFGQGTRLEIK

output:
1: 17.7; 2: 14.7

Where these numbers come from: patent US20230399384A1
